experiment: recombinant UMI read abundance after kanamycin selection (control-corrected) (log10(CPM+1)); higher = more efficient recombination; extreme values may be limits of the assay; sequences stand for … in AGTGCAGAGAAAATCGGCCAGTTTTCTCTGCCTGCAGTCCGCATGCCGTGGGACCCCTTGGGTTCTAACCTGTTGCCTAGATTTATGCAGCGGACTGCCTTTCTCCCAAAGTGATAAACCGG…AGGTTGGTTTCACT; site = the 11-nt donor
RECORDED_METRIC: recombinant UMI read abundance (log10)

Would you please look over these solved cases?
entry_sequence="TTGCACGCATGGACCGGTTTTCCCGGTAATCCGTATTTGGT (site TTGCACGCTAC)" recorded_metric="recombinant UMI read abundance (log10)" endpoint_value=0.647
entry_sequence="GCTTGCCCATGGACCGGTTTTCCCGGTAATCCGTATTTGAC (site GCTTGCCCTGT)" recorded_metric="recombinant UMI read abundance (log10)" endpoint_value=0

Ask | Looking for the measured recombinant UMI read abundance (log10) of GTTTAACCATGGACCGGTTTTCCCGGTAATCCGTATTTGGT (site GTTTAACCTAC) , can you help?
Reply | 0.00474

Ask | Queued: CACGGCCCATGGACCGGTTTTCCCGGTAATCCGTATTTGAT (site CACGGCCCTAA)
Reply | 0.0181

Ask | // same read-out, input: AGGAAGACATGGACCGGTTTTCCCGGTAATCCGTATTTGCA (site AGGAAATCTTG)
Reply | 0

Ask | Record: GGTCACGCATGGACCGGTTTTCCCGGTAATCCGTATTTGTC (site GGTCACGCTGA)
Reply | 2.56

====

assay: recombinant UMI read abundance after kanamycin selection (control-corrected) (log10(CPM+1)); higher = more efficient recombination; extreme values may be limits of the assay; sequences stand for … in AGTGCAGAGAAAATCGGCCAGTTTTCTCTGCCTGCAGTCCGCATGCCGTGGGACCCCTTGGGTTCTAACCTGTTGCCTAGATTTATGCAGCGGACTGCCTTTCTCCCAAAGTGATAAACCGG…AGGTTGGTTTCACT; site = the 11-nt donor
Known recombinant UMI read abundance (log10) of a selection of sequences
Reply: number alone, nothing else.

Consider the following illustrative entries.
entry_sequence="TCTACTGCATGGACCGGTTTTCCCGGTAATCCGTATTTGCC (site CCTACTGCTGG)" recorded_metric="recombinant UMI read abundance (log10)" endpoint_value=0
entry_sequence="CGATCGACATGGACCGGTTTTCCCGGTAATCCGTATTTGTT (site CGATCGACTAT)" recorded_metric="recombinant UMI read abundance (log10)" endpoint_value=0.188
entry_sequence="CCCATAGCATGGACCGGTTTTCCCGGTAATCCGTATTTGTC (site CCCATACCTGA)" recorded_metric="recombinant UMI read abundance (log10)" endpoint_value=0
entry_sequence="CTCCACACATGGACCGGTTTTCCCGGTAATCCGTATTTGTA (site CTCCACACTTA)" recorded_metric="recombinant UMI read abundance (log10)" endpoint_value=1.33
entry_sequence="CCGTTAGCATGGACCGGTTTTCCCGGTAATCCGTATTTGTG (site CCTTTAGCTCA)" recorded_metric="recombinant UMI read abundance (log10)" endpoint_value=0.015
entry_sequence="AATTGTGCATGGACCGGTTTTCCCGGTAATCCGTATTTGGA (site AATTCTGCTTC)" recorded_metric="recombinant UMI read abundance (log10)" endpoint_value=0.00901

Ask | # query: recombinant UMI read abundance (log10) of entry GTAGGTACATGGACCGGTTTTCCCGGTAATCCGTATTTGAG (site GTAGGTACTGT)
Reply | 1.42

Ask | Let us now turn to TCGGAATCATGGACCGGTTTTCCCGGTAATCCGTATTTGCG (site TCGGAATCTCG)
Reply | 1.26

Ask | Try this sequence too: CTGCTCCCATGGACCGGTTTTCCCGGTAATCCGTATTTGCT (site CTGCTCCCTAG)
Reply | 1.78

Ask | Try this sequence next: CACTTGGCATGGACCGGTTTTCCCGGTAATCCGTATTTGGG (site CACTTGGCTAC)
Reply | 0.0307

====

assay: recombinant barcode read abundance after kanamycin selection (control-corrected) (log10(CPM+1)); higher = more efficient recombination; sequences stand for … in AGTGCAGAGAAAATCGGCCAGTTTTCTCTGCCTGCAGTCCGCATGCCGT…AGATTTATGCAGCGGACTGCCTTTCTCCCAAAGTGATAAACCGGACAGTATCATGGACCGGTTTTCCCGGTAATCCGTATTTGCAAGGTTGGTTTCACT; site = the 11-nt target
Please use YES whenever recombinant barcode read abundance (log10) is not below 0.3, and NO whenever it is.

entry_sequence="GACTCTCCTTGGGTTCTAACCTGTTGCCT (site GACTCTCCTAG)" cat=NO
entry_sequence="TTACAGGCTTGGGTTCTAACCTGTTGCCG (site TTACAGGCTCG)" cat=YES
entry_sequence="CATAACTCTTGGGTTCTAACCTGTTGCCT (site AATAACTCTAG)" cat=NO

Ask | hey, is recombinant barcode read abundance (log10) for this one >= 0.3? CAGAATCCTTGGGTTCTAACCTGTTGCGG (site TCTCTCGCTAG)
Reply | NO

Ask | Proceed to GTGAAGACTTGGGTTCTAACCTGTTGCTT (site GTGAAGACTAA)
Reply | YES

Ask | Now this one: CTGGGTTCTTGGGTTCTAACCTGTTGCCT (site CCGGGTTCTAG)
Reply | NO

Ask | Would you mind doing TCGCACGCTTGGGTTCTAACCTGTTGCCT (site TCTCACGCTAG) as well?
Reply | YES

====

Each entry below lists one item and its recorded recombinant barcode read abundance (log10) value.
assay: recombinant barcode read abundance after kanamycin selection (control-corrected) (log10(CPM+1)); higher = more efficient recombination; sequences stand for … in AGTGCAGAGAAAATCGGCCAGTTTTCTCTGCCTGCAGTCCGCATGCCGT…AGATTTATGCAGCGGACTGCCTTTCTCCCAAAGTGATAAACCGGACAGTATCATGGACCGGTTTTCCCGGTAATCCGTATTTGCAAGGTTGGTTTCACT; site = the 11-nt target
// no unit, no text: just the number

Ask | May I ask what recombinant barcode read abundance (log10) has been recorded for GTAGTGTCTTGGGTTCTAACCTGTTGCTA (site CTAGTGTCTTA) ?
Reply | 1.61

====

test: recombinant UMI read abundance after kanamycin selection (control-corrected) (log10(CPM+1)); higher = more efficient recombination; extreme values may be limits of the assay; sequences stand for … in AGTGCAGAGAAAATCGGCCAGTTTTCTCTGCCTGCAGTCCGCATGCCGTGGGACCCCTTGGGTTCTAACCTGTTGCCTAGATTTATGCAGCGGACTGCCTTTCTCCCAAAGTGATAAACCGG…AGGTTGGTTTCACT; site = the 11-nt donor
RECORDED_METRIC: recombinant UMI read abundance (log10)

Ask | Which value of recombinant UMI read abundance (log10) has been reported for CAATTACCATGGACCGGTTTTCCCGGTAATCCGTATTTGCT (site CAATTCCCTAG) in the records?
Reply | 0

Ask | Proceed to TCATACCCATGGACCGGTTTTCCCGGTAATCCGTATTTGTG (site TCATACCCTCA)
Reply | 0

Ask | Next up: GAGCTCACATGGACCGGTTTTCCCGGTAATCCGTATTTGTT (site GAGCTCACTAG)
Reply | 2.34

Ask | Try this sequence too: TGCGAGGCATGGACCGGTTTTCCCGGTAATCCGTATTTGGA (site TGCGAGGCTTC)
Reply | 0.00911

Ask | Let us now turn to GGATAGCCATGGACCGGTTTTCCCGGTAATCCGTATTTGCC (site GGATAGACTGG)
Reply | 0

Ask | Okay, and ATCCACGCATGGACCGGTTTTCCCGGTAATCCGTATTTGAG (site ATCCAGGCTCT) ?
Reply | 0.0164

Ask | Then ACCTAGACATGGACCGGTTTTCCCGGTAATCCGTATTTGGT (site ACCTAGACTCC) ?
Reply | 0.0175

Ask | Can you check CTTCCGGCATGGACCGGTTTTCCCGGTAATCCGTATTTGAT (site CTTCCGGCTAT) next?
Reply | 1.14

Ask | Now consider CCCCCTACATGGACCGGTTTTCCCGGTAATCCGTATTTGAG (site CTCCCTACTCT) .
Reply | 0.011

====

test: recombinant barcode read abundance after kanamycin selection (control-corrected) (log10(CPM+1)); higher = more efficient recombination; sequences stand for … in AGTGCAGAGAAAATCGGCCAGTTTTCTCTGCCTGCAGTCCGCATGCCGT…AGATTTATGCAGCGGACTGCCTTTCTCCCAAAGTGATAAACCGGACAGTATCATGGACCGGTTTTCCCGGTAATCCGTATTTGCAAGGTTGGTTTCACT; site = the 11-nt target
Assign true (1) whenever recombinant barcode read abundance (log10) does not fall below 0.8; assign false (0) whenever it does.

Solved cases below.
entry_sequence="TCACGTCCTTGGGTTCTAACCTGTTGCGT (site TCACGTCCTAT)" cat="false (0)"
entry_sequence="AGTGAGACTTGGGTTCTAACCTGTTGCGG (site ACCGAGACTCC)" cat="true (1)"
entry_sequence="AGGGAATCTTGGGTTCTAACCTGTTGCCT (site AGAGAATCTAG)" cat="false (0)"

Lab note: next sequence to report on.
Ask | hey, is recombinant barcode read abundance (log10) for this one >= 0.8? GCAAGGTCTTGGGTTCTAACCTGTTGCAT (site GCAAGGTCTAT)
Reply | true (1)
